Reference for the values: PubChem BioAssay AID1851

molecular target: Cytochrome P450 2D6 (Homo sapiens); test: Cytochrome panel assay with activity outcomes; conditions: recombinant CYP, pro-luciferin dealkylation, luminescence, p450-cyp2d6; series mostly up to 57.1 µM
About 2,600 (16%) of roughly 16,000 compounds were called active. Inconclusive results (about 20%) are left out. Calls follow the shape of the dose curve; as a rule, active = well fitted curve in the direction sought with a large enough effect; inconclusive = small, poorly fitted or top-dose-only effect, or effect the other way; inactive = no such curve, though single readings can be large or run the other way. Not all results are given here.
Outcomes: active, inactive

1. CC[C@@H]1OC(=O)[C@H](C)[C@H](O[C@@H]2C[C@](C)(OC)[C@H](O)[C@H](C)O2)[C@H](C)[C@H](O[C@@H]2O[C@@H](C)C[C@@H](N(C)C)[C@@H]2O)[C@](C)(O)C[C@H](C)C(=NOCOCCOC)[C@H](C)[C@H](O)[C@]1(C)O ... inactive
2. COc1cccc(C2C(C(=O)c3cc4ccccc4o3)=C(O)C(=O)N2c2cc(C)on2)c1OC (centres undefined) ... inactive
3. Cc1cccc(C(=O)N2CCN(c3ccc([N+](=O)[O-])c(NCc4ccco4)c3)CC2)c1 ... inactive
4. O=C(c1cc(C(F)(F)F)cc(C(F)(F)F)c1)N1CCC[C@@]2(CCN(c3ncccn3)C2)C1 ... inactive
5. CCOC(=O)COc1c(OC)cc(Cl)cc1C1Nc2ccccc2C(=O)N1c1ccc(F)cc1 (centres undefined) ... inactive
6. Cc1ccc(S(=O)(=O)N2CCN(Cc3ccccc3C(F)(F)F)CC2)cc1 ... active
7. O=c1c(-c2ccc(F)cc2)nc2cnc(N3CCNCC3)nc2n1-c1ccccc1 ... inactive
8. Cc1ccc(-c2csc(N3CCC(NS(=O)(=O)c4ccc5c(c4)OCCO5)CC3)n2)cc1 ... inactive
9. CCN1CCc2nc(N)oc2CC1 ... inactive
10. COc1ccc(-c2nc3cnc(N4CCOCC4)nc3n(C[C@H]3CCCO3)c2=O)cc1 ... inactive
11. Cc1ccc(C(=O)N2CCN(c3cc(=O)[nH]nc3-c3ccccc3)CC2)cc1 ... inactive
12. C[C@@H](C(=O)O)c1ccc(C[C@@H]2CCCC2=O)cc1 ... inactive
13. CCOC(=O)c1ccc(N2C(=O)CC(Nc3ccc(CCO)cc3)C2=O)cc1 (centres undefined) ... inactive
14. CCOC(=O)N1CCC(NC(=O)C2CCN(S(=O)(=O)N3CCCC3)CC2)CC1 ... inactive
15. CN(CCCNC(=O)c1ccc(/C=N/O)nc1)CCCN(C)Cc1ccccc1 ... active
16. O=c1c2c(nc3c(-c4ccccc4)c[nH]n13)CCC2 ... inactive
17. COc1cccc(N=c2oc3c(C)ncc(CO)c3cc2C(N)=O)c1 ... inactive
18. Cc1ccc(S(=O)(=O)N2CCN(C(=O)CN3CCN(C)CC3)C2)cc1 ... inactive
19. CC(C)Cc1ccc([C@H](C)C(=O)O)cc1 ... inactive

###

biological target: Cytochrome P450 2D6 (Homo sapiens); assay: Cytochrome panel assay with activity outcomes; conditions: recombinant CYP, pro-luciferin dealkylation, luminescence, p450-cyp2d6; series mostly up to 57.1 µM
Screen size: about 16,000 compounds; about 2,600 (16%) were called active. Not shown: some 20% with an inconclusive outcome. The list is a sample of the results.
endpoint.label: AC50

1) COc1ccc(NC(=O)CN(C)S(=O)(=O)c2ccc(Cl)cc2)c([N+](=O)[O-])c1 ... inactive
2) COc1cc(C)c(Br)cc1S(=O)(=O)NCc1ccccc1 ... inactive
3) Cc1cc(C)c(NC(=O)CS(=O)CC(=O)NCCCc2ccccc2)c(C)c1 (stereo unspecified) ... inactive
4) N#Cc1c(-c2ccccc2)nc2n(c1=O)CCS2 ... inactive
5) O=C(O)C1=CCNCC1 ... inactive
6) COc1ccccc1CNCc1cccs1 ... 794 nM (active)
7) COc1ccc(/C(O)=C2/C(=O)C(=O)N(CCN3CCOCC3)C2c2ccc(C)cc2)cc1 (stereo unspecified) ... inactive
8) Cc1cccc(C)c1NC(=O)CS(=O)CC(=O)NCCCc1ccccc1 (stereo unspecified) ... inactive
9) Cc1ccccc1-c1nc(CS(=O)CC(=O)NCCN2CCN(Cc3ccccc3)CC2)c(C)o1 (stereo unspecified) ... 14100 nM (active)
10) COc1ccc(NC(=O)c2ccc(C)cc2Cl)c([N+](=O)[O-])c1 ... 891 nM (active)
11) COc1ccccc1CNC(=O)C1CCN(S(=O)(=O)N2CC(C)CC(C)C2)CC1 (stereo unspecified) ... inactive

###

molecular target: Cytochrome P450 2D6 (Homo sapiens) (UniProt P10635); assay: Cytochrome panel assay with activity outcomes; settings: recombinant CYP, pro-luciferin dealkylation, luminescence, p450-cyp2d6; series mostly up to 57.1 µM
Sequence (P10635 whole entry, looked up): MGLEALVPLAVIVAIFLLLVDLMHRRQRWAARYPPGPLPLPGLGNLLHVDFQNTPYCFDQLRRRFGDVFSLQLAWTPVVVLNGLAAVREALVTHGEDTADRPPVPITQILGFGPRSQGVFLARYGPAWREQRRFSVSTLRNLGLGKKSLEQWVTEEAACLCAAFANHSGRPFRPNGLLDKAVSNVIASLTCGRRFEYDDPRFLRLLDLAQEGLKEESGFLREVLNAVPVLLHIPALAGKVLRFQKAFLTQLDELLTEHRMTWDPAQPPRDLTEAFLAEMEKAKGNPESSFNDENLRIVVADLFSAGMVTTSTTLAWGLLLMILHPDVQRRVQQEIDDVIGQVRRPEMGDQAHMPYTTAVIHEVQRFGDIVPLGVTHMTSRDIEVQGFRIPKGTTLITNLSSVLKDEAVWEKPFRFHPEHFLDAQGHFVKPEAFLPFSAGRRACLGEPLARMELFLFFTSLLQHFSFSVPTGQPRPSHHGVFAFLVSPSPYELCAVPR
The whole screen tested about 16,000 compounds, of which about 2,600 (16%) were called active. Another 20% or so got no clear call; they are omitted. The list is a sample of the results.
endpoint.label: AC50

1) CNc1nc(-c2ccccc2OC)nc2ccccc12 ... 20000 nM (active)
2) CCC(C)NS(=O)(=O)c1ccc(OCC(=O)NCC2CCCO2)cc1 (configuration not stated) ... inactive
3) Cc1noc(COc2ccc(OCc3nc(C)no3)cc2)n1 ... inactive
4) C=CCNCCCCOc1c(Cl)cc(C)cc1Br ... 178 nM (active)
5) Cc1ccccc1-c1nc(NC2CCNCC2)c2ccccc2n1 ... inactive
6) O=C(c1ccccc1)c1c[nH]c(C(=O)NCCCN2CCOCC2)c1 ... inactive
7) CCC(CC)C(=O)Nc1cccc(/C(C)=N/NC(=O)c2c(Br)cnn2C)c1 ... inactive
8) CCOC(=O)n1ccn(C)c1=S ... inactive
9) COCCCNCCCCOc1c(Cl)cc(C)cc1Br ... 708 nM (active)
10) Clc1ccccc1-c1nc(NCc2cccs2)c2ccccc2n1 ... 12600 nM (active)
11) COc1ccccc1-c1nc(NCc2ccccc2)c2ccccc2n1 ... 1580 nM (active)
12) CCOC(=O)C1=C(C)C(c2ccccc2OC)NC(=S)N1 (configuration not stated) ... inactive

###

molecular target: Cytochrome P450 2D6 (Homo sapiens); experiment: Cytochrome panel assay with activity outcomes; conditions: recombinant CYP, pro-luciferin dealkylation, luminescence, p450-cyp2d6; series mostly up to 57.1 µM
About 2,600 (16%) of roughly 16,000 compounds were called active. Inconclusive results (about 20%) are left out. Calls follow the shape of the dose curve; as a rule, active = well fitted curve in the direction sought with a large enough effect; inconclusive = small, poorly fitted or top-dose-only effect, or effect the other way; inactive = no such curve, though single readings can be large or run the other way. The list is a sample of the results.
Outcomes: 1.0 for active, 0.0 for inactive

1) O=C1CC2(CCCC2)CC(=O)N1CCCCNC[C@H]1COc2ccccc2O1 ... 1.0
2) O=C(Cc1ccc2c(c1)CCCC2)Nc1ccccc1Br ... 0.0
3) Cn1c(C(=O)O)c(CC(=O)NCC2COc3ccccc3O2)c2ccccc21 (stereo unspecified) ... 0.0
4) Cc1cc(C(=O)CSc2nnc(-c3ccccc3)o2)c(C)n1CC1COc2ccccc2O1 (stereo unspecified) ... 0.0
5) O=c1onc2n1-c1cc(Br)ccc1OC2 ... 0.0
6) C[N+](C)(C)CC(=O)O ... 0.0
7) COc1ccc(S(=O)(=O)N2CCC(C(=O)NCC3CCCO3)CC2)cc1C (stereo unspecified) ... 0.0
8) COCCn1c(=O)cnc2cnc(Nc3cccc(OC)c3)nc21 ... 0.0
9) COc1ccccc1N1CCN(CCN2C(=O)CC3(CCCC3)CC2=O)CC1 ... 0.0
10) C/C(CC(=O)NCc1ccco1)=N\NC(=O)Cc1cccc2ccccc12 ... 0.0
11) Cc1ccc2nc(N3CCN(S(=O)(=O)c4ccc5c(c4)OCCO5)CC3)c(C#N)cc2c1 ... 0.0

###

biological target: Cytochrome P450 2D6 (Homo sapiens) (UniProt P10635); experiment: Cytochrome panel assay with activity outcomes; conditions: recombinant CYP, pro-luciferin dealkylation, luminescence, p450-cyp2d6; series mostly up to 57.1 µM
Screen size: about 16,000 compounds; about 2,600 (16%) were called active. Roughly 20% stayed inconclusive and do not appear here. The call rests on the fitted dose curve; in most records, active means well fitted curve in the direction sought with a large enough effect; inconclusive means small, poorly fitted or top-dose-only effect, or effect the other way; inactive means no such curve, though single readings can be large or run the other way. Not all results are given here.
Outcomes: active, inactive

1) CSc1nnc(-c2sccc2OCc2ccccc2)n1C ... inactive
2) COc1cc(CNCCc2ccccc2)ccc1OCC(=O)NC(C)(C)C ... active
3) O=[N+]([O-])c1ccc(/C=N/Nc2cc(Cl)nc(-c3ccccc3)n2)cc1 ... inactive
4) CCCCNC(=O)NC1C(NC(=O)NCCCC)N(C)C(=O)N1C (stereo not drawn) ... inactive
5) Cc1noc(C)c1CS(=O)(=O)c1ccc(Br)cc1 ... inactive
6) COc1ccc(C/C(N)=N/OC(=O)Cc2ccccc2)cc1OC ... inactive
7) C=CCn1c(=O)c(C(=O)NCCN(CC)CC)c(O)c2ccccc21 ... active
8) CCCc1c(O)c2ccccc2n(-c2ccccc2)c1=O ... inactive
9) COc1ccc(CNc2nc(-c3ccccc3CN(C)C)nc3ccccc23)c(OC)c1 ... active
10) CN(C)CCNC(=O)C(C(=O)c1ccc(F)cc1)n1ccccc1=O (stereo not drawn) ... inactive
11) CC(C)(C)c1ccc(OCC(=O)NNC(=O)CCc2ccccc2)cc1 ... inactive
12) COc1ccc(CNCCc2ccccc2)cc1OCC(N)=O ... active
13) COc1cccc(/C=c2/s/c(=C(\C#N)C(=O)N3CCOCC3)n(-c3ccccc3)c2=O)c1 ... inactive
14) CN(C(=O)c1c(O)c2ccccc2n(C)c1=O)c1ccccc1 ... inactive
15) CC(=O)N(/N=C1\Sc2ccccc2C1=O)c1ccccc1C ... inactive
16) COc1ccc(/C=N/NC(=O)CCc2ccccc2)cc1O ... inactive
17) COc1ccc(CO/N=C/c2c(C)[nH]c(=O)[nH]c2=O)cc1 ... inactive
18) CCN(CC)CCCN(Cc1cc2ccc(C)c(C)c2[nH]c1=O)C(=O)NC1CCCCC1 ... inactive
19) COc1cc(CNCc2cccs2)ccc1OCC(N)=O ... active
20) COc1ccc(CNC(=O)CN(CC2CCCO2)C(=O)CNS(=O)(=O)c2ccccc2)cc1 (stereo not drawn) ... inactive
21) C(=N\n1cnnc1)/c1cccn1-c1ccccc1 ... inactive
22) COc1cccc2cc3c(=O)oc4ccccc4c3nc12 ... inactive
23) CCOC(=O)C1=NNC2(c3ccc(Cl)cc3)C(=O)N(c3cc(C)cc(C)c3)C(=O)C12 (stereo not drawn) ... inactive
